The values you see were collected from paper PMC3242765.

tested on: BHK cells; assay: Cell viability ATP assay, BHK cells; assay type: cell-based, hamster; conditions: Mesocricetus auratus, BHK, 48 h, read-out: Cell viability IC50
pIC50: −log10 of the molar value.
observation.type: pIC50

QUERY: Fill in the blank: the reported pIC50 of "CC1=CC(=O)c2ccccc2C1=O" is ____.
RESULT: 4.66

QUERY: Fill in the blank: the reported pIC50 of "O=C(O)c1ccc(O)c(O)c1" is ____.
RESULT: < 3.70

QUERY: Fill in the blank: the reported pIC50 of "Nc1ncnc2c1ncn2[C@@H]1O[C@H](CO)[C@@H](N)[C@H]1O" is ____.
RESULT: 3.76

QUERY: Fill in the blank: the reported pIC50 of "C[C@@H]1O[C@@H](Oc2c(-c3ccc(O)c(O)c3)oc3cc(O)cc(O)c3c2=O)[C@H](O)[C@H](O)[C@H]1O" is ____.
RESULT: < 3.70

QUERY: Fill in the blank: the reported pIC50 of CCN(CC)CCCC(C)Nc1ccnc2cc(Cl)ccc12 (stereo not drawn) is ____.
RESULT: < 3.70

QUERY: Fill in the blank: the reported pIC50 of "O=c1cnn([C@@H]2O[C@H](CO)[C@@H](O)[C@H]2O)c(=O)[nH]1" is ____.
RESULT: < 3.70
